# measurement target: MspA-PBA (boronic acid appended hetero-octameric MspA) (Mycolicibacterium smegmatis, UniProt A0QR29, D117C/D118N/D120N/D145R/D161R/E166K)
# Construct: H6 (hexa-histidine) (C); 3-(maleimide) phenylboronic acid (MPBA) adduct on the thiol of Cys90; made in house; host or cells: E. coli BL21 (DE3) pLysS, co-expression from pETDuet-1
# Sequence (A0QR29 other isoform, or with tags, fused parts or gaps D117N/D118N/D120N/D145R/D161R/E166K): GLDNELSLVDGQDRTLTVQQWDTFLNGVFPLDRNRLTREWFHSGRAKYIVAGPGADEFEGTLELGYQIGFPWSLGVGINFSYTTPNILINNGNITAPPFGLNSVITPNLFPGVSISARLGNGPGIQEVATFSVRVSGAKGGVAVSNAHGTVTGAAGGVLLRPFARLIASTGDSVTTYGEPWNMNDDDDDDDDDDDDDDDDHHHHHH
# Sequence (A0QR29 other isoform, or with tags, fused parts or gaps D117C/D118N/D120N/D145R/D161R/E166K): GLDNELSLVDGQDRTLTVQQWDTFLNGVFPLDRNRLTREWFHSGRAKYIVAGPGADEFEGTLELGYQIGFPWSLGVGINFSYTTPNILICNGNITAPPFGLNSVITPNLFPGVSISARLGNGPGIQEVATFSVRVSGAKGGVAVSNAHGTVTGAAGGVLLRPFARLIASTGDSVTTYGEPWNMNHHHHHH
# protocol notes: Single channel recording of alditol binding to MspA-PBA nanopore (standards and zero-sugar drinks)
# Design: species or system Mycobacterium smegmatis
# experimental conditions: alditol 6 mM in cis, +100 mV, N=3
Reported τoff by item:

compound: OC[C@@H](O)[C@@H](O)[C@H](O)[C@@H](O)CO [D-sorbitol]
τoff / ms: 2200
//
compound: OC[C@@H](O)[C@H](O)[C@@H](O)CO [xylitol]
τoff / ms: 461.1
//
compound: OC[C@@H](O)[C@@H](O)CO [erythritol]
τoff / ms: 42.3
//
compound: OCC(O)CO [glycerol]
τoff / ms: 10.5

###

Reported 1/τon by item:
# measurement target: MspA-PBA (boronic acid appended hetero-octameric MspA) (Mycolicibacterium smegmatis, UniProt A0QR29, D117C/D118N/D120N/D145R/D161R/E166K)
# Construct: H6 (hexa-histidine) (C); 3-(maleimide) phenylboronic acid (MPBA) adduct on the thiol of Cys90; made in house; host or cells: E. coli BL21 (DE3) pLysS, co-expression from pETDuet-1
# protocol notes: Single channel recording of alditol binding to MspA-PBA nanopore (standards and zero-sugar drinks)
# Set-up: species or system Mycobacterium smegmatis
# experimental conditions: voltage series: +80 mV, glycerol 12 mM, other alditols 8 mM, N=3
# Description: FIG. 88: Definition of event parameters. (a) A representative electrophysiology trace containing nanopore events. Xylitol was treated as the model analyte. […] (b-c) The histogram plot of ratio (b) and std (c) acquired from a continually recorded trace. […] (d-e) The histogram plots of τoff (d) and τon (e) acquired from a continually recorded trace. […]

smiles text: OC[C@@H](O)[C@@H](O)[C@H](O)[C@@H](O)CO
unit of measurement: s⁻¹
1/τon: 1.60

smiles text: OC[C@@H](O)[C@@H](O)CO
unit of measurement: s⁻¹
1/τon: 1.65

smiles text: OC[C@@H](O)[C@H](O)[C@@H](O)CO
unit of measurement: s⁻¹
1/τon: 1.69

smiles text: OCC(O)CO
unit of measurement: s⁻¹
1/τon: 2.35

###

Reported 1/τon by item:
# measurement target: MspA-PBA (boronic acid appended hetero-octameric MspA) (Mycolicibacterium smegmatis, UniProt A0QR29, D117C/D118N/D120N/D145R/D161R/E166K)
# Construct: H6 (hexa-histidine) (C); 3-(maleimide) phenylboronic acid (MPBA) adduct on the thiol of Cys90; made in house; host or cells: E. coli BL21 (DE3) pLysS, co-expression from pETDuet-1
# protocol notes: Single channel recording of alditol binding to MspA-PBA nanopore (standards and zero-sugar drinks)
# Design: species or system Mycobacterium smegmatis
# experimental conditions: alditol 6 mM in cis, +100 mV, N=3
# Procedure: FIG. 88: Definition of event parameters. (a) A representative electrophysiology trace containing nanopore events. Xylitol was treated as the model analyte. […] (b-c) The histogram plot of ratio (b) and std (c) acquired from a continually recorded trace. […] (d-e) The histogram plots of τoff (d) and τon (e) acquired from a continually recorded trace. […]

compound: OCC(O)CO [glycerol]
unit of measurement: s⁻¹
1/τon: 1.3

compound: OC[C@@H](O)[C@H](O)[C@@H](O)CO [xylitol]
unit of measurement: s⁻¹
1/τon: 1.3

compound: OC[C@@H](O)[C@@H](O)[C@H](O)[C@@H](O)CO [D-sorbitol]
unit of measurement: s⁻¹
1/τon: 1.2

compound: OC[C@@H](O)[C@@H](O)CO [erythritol]
unit of measurement: s⁻¹
1/τon: 1.16
